- TARGET_UNDER_TEST: Orco 28 + Orco (Anopheles gambiae, UniProt Q7QCC7)
- Construct: expressed in transfected cells
- Sequence (Q7QCC7 whole entry): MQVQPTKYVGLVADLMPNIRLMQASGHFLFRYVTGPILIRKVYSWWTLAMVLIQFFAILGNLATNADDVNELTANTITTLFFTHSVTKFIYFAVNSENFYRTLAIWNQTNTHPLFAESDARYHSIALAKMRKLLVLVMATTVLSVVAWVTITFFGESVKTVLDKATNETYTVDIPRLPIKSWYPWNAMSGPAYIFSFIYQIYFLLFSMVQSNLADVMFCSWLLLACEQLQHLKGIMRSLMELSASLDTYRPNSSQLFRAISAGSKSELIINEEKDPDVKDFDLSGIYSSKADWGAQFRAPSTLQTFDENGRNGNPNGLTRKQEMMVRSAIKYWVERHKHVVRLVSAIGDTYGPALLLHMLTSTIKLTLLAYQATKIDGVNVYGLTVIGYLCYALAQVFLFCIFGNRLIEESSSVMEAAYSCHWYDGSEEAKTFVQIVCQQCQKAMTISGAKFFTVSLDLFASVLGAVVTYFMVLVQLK
- EXPERIMENT_NOTES: Orco 28 + Orco: agonist / antagonist / potentiator screen (Table 1)
- Assay type: cell-based
- STUDY_CONDITIONS: antagonist mode
READOUT_LABEL: Orco 28 + Orco Antagonist % Reduction (%)

1) Cn1c(SCC(=O)Nc2ccc(F)cc2)nnc1-c1cccnc1 ... 11.09
2) Cc1cc(C)c(C(=O)CSc2nnc(-c3cccnc3)n2C)c(C)c1 ... 18.21
3) CCn1c(SCC(=O)NCc2ccco2)nnc1-c1cccnc1 ... 10.89
4) C=CCn1c(SCc2cc3c(cc2Cl)OCO3)nnc1-c1cccnc1 ... 16.91
5) CC(=O)n1ccc2ccc(C(=O)CSc3nnc(-c4cccnc4)n3C)cc21 ... 13.76

* * *

- TARGET_UNDER_TEST: mosquito odorant receptor (complex not stated) (Anopheles gambiae, UniProt Q7QCC7)
- EXPERIMENT_NOTES: Agonism of mosquito odorant receptors by VUAA derivatives (complex not stated), cell-based Ca2+ imaging
- STUDY_CONDITIONS: FIGS. 23, 24, 26, 28; OR complex not stated
pEC50: −log10 of the molar value.
READOUT_LABEL: pEC50

1. CCn1c(SCC(=O)Nc2ccc(C(C)C)cc2)nnc1-c1cn[nH]c1 [D00049 row 12] ... 3.70
2. CCn1c(SCC(=O)Nc2ccc(C(C)C)cc2)nnc1-c1cnn(C)c1 [D00049 row 11] ... 3.74
3. CCn1c(SCC(=O)Nc2ccc(C(C)C)cc2)nnc1-c1cccnc1 [D00049 row 2] ... 4.70
